Each recorded value in this set is attributed to patent EP4768499A1.

Record form. Attribute: Mouse Hepatic Microsome CLh,int NADPH(-). Fill in for each entry.
assay: Metabolic stability test: liver microsomal stability assay; assay type: in vitro ADME, mouse; details: mouse liver microsomes 0.5 mg protein/mL, compound 1 µM, absence of NADPH
Starred links: 1 amine or outer side, 2 acyl side, 3 side chain; linkers in the order of their positions; H or OH if unused. Positions of bridges follow the written chain, without caps; N, C: chain ends. Non-standard residues stand in square brackets, D forms with d. Residues, ends and D or L forms follow the SMILES beside them. *: point of attachment. NMedβ3hAla = C[C@H](CC(=O)[*:2])N(C)[*:1]; NMeF = CN[C@@H](Cc1ccccc1)C(=O)O; NMeT = CN[C@H](C(=O)O)[C@@H](C)O; hPhe = N[C@@H](CCc1ccccc1)C(=O)O; NMeD = CN[C@@H](CC(=O)O)C(=O)O; NMeL = CN[C@@H](CC(C)C)C(=O)O; NMeV = CN[C@H](C(=O)O)C(C)C; NMeAbu = CC[C@H](NC)C(=O)O; NMeA = CN[C@@H](C)C(=O)O; Piperidide = C1CCN(*)CC1; Abu = CC[C@H](N)C(=O)O; βAla = NCCC(=O)O; Sar = CNCC(=O)O; tBu = CC(C)(C)*
Numbers only, in µL/min/mg Protein.

Here is how some compounds turned out for Mouse Hepatic Microsome CLh,int NADPH(-).
Compound: CC[C@H]1C(=O)N(C)[C@@H](CC(C)C)C(=O)N2CCC[C@H]2C(=O)N(C)[C@@H](CC)C(=O)N[C@@H](CCc2ccccc2)C(=O)N(C)[C@@H](C)C(=O)N(C)[C@@H](CC)C(=O)N[C@@H](C(C)C)C(=O)N(C)[C@H](C)CC(=O)N(C)CC(=O)N(C)[C@@H](Cc2ccccc2)C(=O)N[C@@H]([C@@H](C)O)C(=O)N(C)[C@@H](CC(C)C)C(=O)N[C@@H](C(C)C)C(=O)N1C [pd073] (cyclo([NMeA][NMeAbu]V[NMedβ3hAla][Sar][NMeF]T[NMeL]V[NMeAbu][NMeL]P[NMeAbu][hPhe]))
Quantity Measured: Mouse Hepatic Microsome CLh,int NADPH(-)
Recorded Number: 2.9

Compound: CC[C@H]1C(=O)N(C)CC(=O)N(C)[C@@H](CC(C)C)C(=O)N[C@@H](COC(C)(C)C)C(=O)N(C)[C@@H](C)C(=O)N(C)[C@@H](Cc2ccccc2)C(=O)N(C)CC(=O)N(C)[C@H](C(=O)N2CCCCC2)CC(=O)N[C@H](C(C)C)C(=O)N(C)[C@@H](Cc2ccccc2)C(=O)NCCC(=O)N(C)[C@@H](C(C)C)C(=O)N[C@@H]([C@@H](C)O)C(=O)N(C)[C@@H](CC(C)C)C(=O)N1C [pd094] ([dV][NMeF][βAla][NMeV]T[NMeL][NMeAbu][Sar][NMeL]S(tBu)[NMeA][NMeF][Sar][NMeD]-Piperidide; lactam N-14)
Quantity Measured: Mouse Hepatic Microsome CLh,int NADPH(-)
Recorded Number: 16.7

Compound: CC(C)C[C@@H]1NC(=O)[C@H](CC(C)C)N(C)C(=O)[C@H](C(C)C)N(C)C(=O)[C@H](CCc2ccccc2)NC(=O)[C@H]([C@@H](C)O)N(C)C(=O)[C@@H](C(C)C)NC(=O)C[C@@H](C(=O)N2CCCCC2)NC(=O)[C@H](C(C)C)N(C)C(=O)[C@H](CC(C)C)NC(=O)[C@H](Cc2ccccc2)N(C)C(=O)[C@@H]2CCCN2C(=O)[C@H](C(C)C)NC(=O)[C@H](CC(C)C)N(C)C(=O)CN(C)C1=O [pd032] ([dV][NMeT][hPhe][NMeV][NMeL]L[Sar][NMeL]VP[NMeF]L[NMeV]D-Piperidide; lactam N-14)
Quantity Measured: Mouse Hepatic Microsome CLh,int NADPH(-)
Recorded Number: 28.7

Pending compound:
Identify the reported Mouse Hepatic Microsome CLh,int NADPH(-) for the following entry. CC[C@@H]1NC(=O)[C@H](C(C)C)N(C)C(=O)[C@H](C)N(C)C(=O)[C@H](Cc2ccccc2)N(C)C(=O)[C@H](CC(C)C)NC(=O)[C@H](Cc2ccccc2)N(C)C(=O)[C@H](C(C)C)NC(=O)[C@H](CC(C)C)N(C)C(=O)[C@H]([C@@H](C)CC)NC(=O)[C@H](CC(C)C)N(C)C(=O)CN(C)C(=O)C[C@@H](C(=O)N2CCCCC2)N(C)C(=O)CNC(=O)[C@H](C)N(C)C1=O [pd080] ([Sar][NMeL]I[NMeL]V[NMeF]L[NMeF][NMeA][NMeV][Abu][NMeA]G[NMeD]-Piperidide; lactam N-14) 27.8

----------
Experiment: Metabolic stability test: liver microsomal stability assay
Assay type: in vitro ADME, mouse
Settings: male, pH 7.4; mouse liver microsomes 0.5 mg protein/mL, compound 1 µM, presence of NADPH; read-out: Mouse Hepatic Microsome CLh,int NADPH(+)
Procedure: Under the presence and absence of NADPH, a microsome solution prepared to a concentration of 0.5 mg protein/mL using 100 mM phosphate buffer (pH 7.4) with mouse liver microsomes (male, Corning Incorporated, USA) and the compound at a concentration of 1 µM were subjected to a metabolic reaction for 22 minutes, 44 minutes, or 66 minutes. […]
Positions of bridges follow the written chain, without caps; N, C: chain ends. Non-standard residues stand in square brackets, D forms with d. Residues, ends and D or L forms follow the SMILES beside them. *: point of attachment. NMeF = CN[C@@H](Cc1ccccc1)C(=O)O; NMeD = CN[C@@H](CC(=O)O)C(=O)O; NMeL = CN[C@@H](CC(C)C)C(=O)O; NMeV = CN[C@H](C(=O)O)C(C)C; NMeA = CN[C@@H](C)C(=O)O; Piperidide = C1CCN(*)CC1; Sar = CNCC(=O)O
Quantity Measured: microsomal CLint at 1 µM (µL/min/mg)
Numbers only, in µL/min/mg.

Identify the reported microsomal CLint at 1 µM for the following entry. CC(C)C[C@@H]1NC(=O)[C@H](Cc2ccccc2)N(C)C(=O)[C@H](C)N(C)C(=O)[C@H](CC(C)C)N(C)C(=O)CN(C)C(=O)[C@H](C(C)C)N(C)C(=O)[C@H](CC(C)C)N(C)C(=O)[C@H](C(C)C)N(C)C(=O)[C@H](C(C)C)NC(=O)[C@H](CC(C)C)N(C)C(=O)[C@@H](C(C)C)NC(=O)C[C@@H](C(=O)N2CCCCC2)N(C)C(=O)[C@H](C)N(C)C1=O [pd157] ([dV][NMeL]V[NMeV][NMeL][NMeV][Sar][NMeL][NMeA][NMeF]L[NMeA][NMeD]-Piperidide; lactam N-13) 31.7

----------
experiment: Mouse PK test: plasma concentration after intravenous or oral administration; assay type: in vivo, mice (C57BL/6J); conditions: male, C57BL/6J, in vivo, iv, 1 mg/kg
Starred links: 1 amine or outer side, 2 acyl side, 3 side chain; linkers in the order of their positions; H or OH if unused. Non-standard residues stand in square brackets, D forms with d. Residues, ends and D or L forms follow the SMILES beside them. *: point of attachment. NMedβ3hAla = C[C@H](CC(=O)[*:2])N(C)[*:1]; NMeF = CN[C@@H](Cc1ccccc1)C(=O)O; NMeI = CC[C@H](C)[C@H](NC)C(=O)O; NMeβAla = CN(CCC(=O)[*:2])[*:1]; NMeL = CN[C@@H](CC(C)C)C(=O)O; Sar = CNCC(=O)O; tBu = CC(C)(C)*
Quantity Measured: Vd

Identify the reported Vd for the following entry. CC[C@H](C)[C@H]1C(=O)N[C@@H](CC(C)C)C(=O)N(C)CC(=O)N(C)[C@@H](CC(C)C)C(=O)N[C@@H](CC(C)C)C(=O)N(C)[C@H](C)CC(=O)N(C)[C@@H](CC(C)C)C(=O)N(C)CCC(=O)N(C)[C@@H](CC(C)C)C(=O)N[C@@H](COC(C)(C)C)C(=O)N(C)[C@@H](Cc2ccccc2)C(=O)N(C)CCC(=O)N(C)[C@@H](Cc2ccccc2)C(=O)N1C [pd144] (cyclo(L[Sar][NMeL]L[NMedβ3hAla][NMeL][NMeβAla][NMeL]S(tBu)[NMeF][NMeβAla][NMeF][NMeI])) 1.6 L/kg

----------
Record form. Attribute: Mouse Hepatic Microsome CLh,int NADPH(-). Fill in for each entry.
experiment: Metabolic stability test: liver microsomal stability assay; type: in vitro ADME, mouse; conditions: mouse liver microsomes 0.5 mg protein/mL, compound 1 µM, absence of NADPH
Starred links: 1 amine or outer side, 2 acyl side, 3 side chain; linkers in the order of their positions; H or OH if unused. Positions of bridges follow the written chain, without caps; N, C: chain ends. Non-standard residues stand in square brackets, D forms with d. Residues, ends and D or L forms follow the SMILES beside them. *: point of attachment. NMeF = CN[C@@H](Cc1ccccc1)C(=O)O; NMeI = CC[C@H](C)[C@H](NC)C(=O)O; NMeT = CN[C@H](C(=O)O)[C@@H](C)O; NMeβAla = CN(CCC(=O)[*:2])[*:1]; NMeL = CN[C@@H](CC(C)C)C(=O)O; NMeV = CN[C@H](C(=O)O)C(C)C; d(β3hA) = C[C@@H](N)CC(=O)O; NMeAbu = CC[C@H](NC)C(=O)O; NMeA = CN[C@@H](C)C(=O)O; Piperidide = C1CCN(*)CC1; dNMeA = CN[C@H](C)C(=O)O; Abu = CC[C@H](N)C(=O)O; tBu = CC(C)(C)*
Numbers only, in µL/min/mg Protein.

Dear colleague, could you send me Mouse Hepatic Microsome CLh,int NADPH(-) for each of the items below? Thanks.
1. CC[C@H](C)[C@@H]1NC(=O)[C@H](CC(C)C)N(C)C(=O)C[C@@H](C)NC(=O)[C@H](C(C)C)N(C)C(=O)[C@H](COC(C)(C)C)NC(=O)[C@H](CC)N(C)C(=O)[C@H](Cc2ccccc2)N(C)C(=O)[C@H](CC(C)C)NC(=O)[C@@H]2CCCN2C(=O)[C@H]([C@@H](C)O)N(C)C(=O)[C@H](CC(C)C)N(C)C(=O)[C@H](CC)N(C)C(=O)[C@H](C(C)C)N(C)C(=O)[C@H](CC(C)C)N(C)C1=O [pd061] (cyclo(I[NMeL][NMeV][NMeAbu][NMeL][NMeT]PL[NMeF][NMeAbu]S(tBu)[NMeV][d(β3hA)][NMeL]))
2. CC[C@@H]1NC(=O)[C@H](CC(C)C)N(C)C(=O)[C@H]([C@@H](C)CC)NC(=O)[C@H](CC(C)C)N(C)C(=O)C[C@@H](C)NC(=O)[C@H](C(C)C)N(C)C(=O)[C@H](CC(C)C)NC(=O)[C@H](CC)N(C)C(=O)[C@H](Cc2ccccc2)N(C)C(=O)[C@@H]2CCCN2C(=O)[C@H](CC(C)C)NC(=O)[C@H]([C@@H](C)O)N(C)C(=O)[C@H](C)NC(=O)[C@H](CC(C)C)N(C)C1=O [pd053] (cyclo(A[NMeT]LP[NMeF][NMeAbu]L[NMeV][d(β3hA)][NMeL]I[NMeL][Abu][NMeL]))
3. CC[C@@H]1NC(=O)[C@H](CC(C)C)N(C)C(=O)[C@H](Cc2ccccc2)N(C)C(=O)[C@H](CC(C)C)N(C)C(=O)[C@H](C)NC(=O)C[C@@H](C(=O)N2CCCCC2)NC(=O)[C@H](C(C)C)N(C)C(=O)[C@@H]2CCCN2C(=O)CCN(C)C(=O)[C@H](CC(C)C)NC(=O)[C@H]([C@@H](C)CC)N(C)C(=O)[C@H]([C@@H](C)O)NC(=O)[C@H](Cc2ccccc2)N(C)C1=O [pd112] (A[NMeL][NMeF][NMeL][Abu][NMeF]T[NMeI]L[NMeβAla]P[NMeV]D-Piperidide; lactam N-13)
4. CC[C@H](C)[C@@H]1NC(=O)[C@H](Cc2ccccc2)N(C)C(=O)[C@H](C(C)C)NC(=O)[C@@H](C)N(C)C(=O)C[C@@H](C)NC(=O)[C@H](C(C)C)N(C)C(=O)[C@H](Cc2ccccc2)N(C)C(=O)[C@H](COC(C)(C)C)NC(=O)[C@H](CC(C)C)N(C)C(=O)[C@H](C)N(C)C(=O)[C@@H]2CCCN2C(=O)[C@H]([C@@H](C)O)NC(=O)[C@H](CC(C)C)N(C)C1=O [pd130] (cyclo(I[NMeL]TP[NMeA][NMeL]S(tBu)[NMeF][NMeV][d(β3hA)][dNMeA]V[NMeF]))

[39.7, 24.1, 21.2, 6.8]
